Every entry's value here was drawn from patent US20250195521A1.

target_system: KRAS G12V (Homo sapiens (Human), UniProt P01116+P62937, G12V)
Sequence (P01116 other isoform, or with tags, fused parts or gaps G12V): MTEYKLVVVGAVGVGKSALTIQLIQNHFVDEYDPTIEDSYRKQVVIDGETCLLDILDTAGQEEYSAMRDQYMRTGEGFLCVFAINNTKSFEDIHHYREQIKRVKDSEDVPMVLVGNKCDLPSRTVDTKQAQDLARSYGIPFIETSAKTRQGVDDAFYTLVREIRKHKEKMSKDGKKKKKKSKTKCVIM
Sequence (P62937 whole entry): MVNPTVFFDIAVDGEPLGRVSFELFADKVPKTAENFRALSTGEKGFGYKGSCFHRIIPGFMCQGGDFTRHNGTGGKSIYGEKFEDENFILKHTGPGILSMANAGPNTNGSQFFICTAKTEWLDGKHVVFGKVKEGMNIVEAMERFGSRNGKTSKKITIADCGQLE
experimental_protocol: Ras-Raf disruption/FRET/MOA assay (BRAF RBD, Cyclophilin A)
Format: biochemical
run_parameters: read-out: KRAS G12V FRET IC50
pIC50: −log10 of the molar value.
property_label: pIC50

// below: answered molecules
{"molecule": "CCn1c(-c2cccnc2[C@H](C)OC)c2c3cc(ccc31)-c1cc(O)cc(c1)C[C@H](NC(=O)[C@H](C(C)C)N(C)C(=O)[C@H]1C[C@@H]1F)C(=O)N1CCC[C@H](N1)C(=O)OCC(C)(C)C2 [Compound A161]", "reported_measurement": "6.00 to 7.00"}
{"molecule": "CCn1c(-c2cccnc2[C@H](C)OC)c2c3cc(ccc31)-c1csc(n1)C[C@H](NC(=O)[C@H](C(C)C)N(C)C(=O)[C@@H]1[C@@H]3CN(C)C[C@@H]31)C(=O)N1CCC[C@H](N1)C(=O)OCC(C)(C)C2 [Compound A447]", "reported_measurement": "5.00 to 6.00"}
{"molecule": "CCn1c(-c2cccnc2[C@H](C)OC)c2c3cc(ccc31)-c1csc(n1)C[C@H](NC(=O)[C@H](C(C)C)N1CCC3(CN(S(C)(=O)=O)C3)C1=O)C(=O)N1CCC[C@H](N1)C(=O)OCC(C)(C)C2 [Compound A234]", "reported_measurement": "< 5.00"}

The measured pIC50 associated with CCn1c(-c2cccnc2[C@H](C)OC)c2c3cc(ccc31)-c1cc(O)cc(c1)C[C@H](NC(=O)[C@H](C(C)C)N(C)C(=O)[C@H]1CCN(C(=O)[C@]3(C)CCCN3)C1)C(=O)N1CCC[C@H](N1)C(=O)OCC(C)(C)C2 [Compound A380] reads 7.00 to 8.00
